# ASSAY PROCEDURE: refractive index (Na D-line) (dimensionless)
# CONDITION NOTES: 293.15 K; 101.33 kPa; Liquid; Standard Abbe refractometry
REPORTED ENDPOINT: refractive index
Enter the number alone.

Completed entries (count: 3):
{"columns": ["COMPOUND", "refractive index"],
 "data": [
  ["COC(=O)CCC(=O)OC [dimethyl 1,4-butanedioate]", 1.41969],
  ["COC(=O)CCCC(=O)OC [dimethyl pentanedioate]", 1.42454],
  ["CCC(=O)O [propanoic acid]", 1.3808]
]}

Now for another entry.
Request: Tell us which refractive index value is on record for COC(=O)CCCCC(=O)OC [dimethyl 1,6-hexanedioate]
Result: 1.42825

Measured values drawn from the NIST ThermoML archive (doi:10.1016/j.jct.2007.02.012) for this set.
